method: Particle size distribution by laser diffraction (Malvern)
Type: physicochemical
conditions used: trihydrate
Consider the following compounds; for each one, report its Average Particle Size D50.
// return the numeric value with its unit appended

Q: Give a short answer stating reported Average Particle Size D50 for CC1(C)S[C@@H]2[C@H](NC(=O)[C@H](N)c3ccc(O)cc3)C(=O)N2[C@H]1C(=O)O.O.O.O [entry 6, amoxicillin trihydrate] .
A: 10.0 μm

Give measured Average Particle Size D50 for every item shown.
1. CC1(C)S[C@@H]2[C@H](NC(=O)[C@H](N)c3ccc(O)cc3)C(=O)N2[C@H]1C(=O)O.O.O.O [entry 5, amoxicillin trihydrate]
2. CC1(C)S[C@@H]2[C@H](NC(=O)[C@H](N)c3ccc(O)cc3)C(=O)N2[C@H]1C(=O)O.O.O.O [entry 2, amoxicillin trihydrate]

A:
10.0 μm
40.6 μm

---

method: Powder dissolution, USP/NF paddle method with HPLC analysis
Assay type: physicochemical
conditions used: 60 min; 500 mg in 900 mL water, 37 °C, 75 rpm; replicate #1; trihydrate
measurement kind: Amoxicillin released in solution #1

Q: Give a short answer stating reported Amoxicillin released in solution #1 for CC1(C)S[C@@H]2[C@H](NC(=O)[C@H](N)c3ccc(O)cc3)C(=O)N2[C@H]1C(=O)O.O.O.O [entry 4, amoxicillin trihydrate] .
A: 97.15%

Q: Give a short answer stating reported Amoxicillin released in solution #1 for CC1(C)S[C@@H]2[C@H](NC(=O)[C@H](N)c3ccc(O)cc3)C(=O)N2[C@H]1C(=O)O.O.O.O [entry 5, amoxicillin trihydrate] .
A: 97.29%

Q: Give a short answer stating reported Amoxicillin released in solution #1 for CC1(C)S[C@@H]2[C@H](NC(=O)[C@H](N)c3ccc(O)cc3)C(=O)N2[C@H]1C(=O)O.O.O.O [entry 3, amoxicillin trihydrate] .
A: 99.14%

Q: Give a short answer stating reported Amoxicillin released in solution #1 for CC1(C)S[C@@H]2[C@H](NC(=O)[C@H](N)c3ccc(O)cc3)C(=O)N2[C@H]1C(=O)O.O.O.O [entry 1, amoxicillin trihydrate] .
A: 99.56%

Q: Give a short answer stating reported Amoxicillin released in solution #1 for CC1(C)S[C@@H]2[C@H](NC(=O)[C@H](N)c3ccc(O)cc3)C(=O)N2[C@H]1C(=O)O.O.O.O [entry 6, amoxicillin trihydrate] .
A: 99.56%

New cases:
Q: Give a short answer stating reported Amoxicillin released in solution #1 for CC1(C)S[C@@H]2[C@H](NC(=O)[C@H](N)c3ccc(O)cc3)C(=O)N2[C@H]1C(=O)O.O.O.O [entry 2, amoxicillin trihydrate] .
A: 99.56%

---

method: Powder dissolution, USP/NF paddle method with HPLC analysis
Assay type: physicochemical
conditions used: 1 min; 500 mg in 900 mL water, 37 °C, 75 rpm; mean of 3; trihydrate
Consider the following compounds; for each one, report its Amoxicillin released in solution Mean.
Give bare numbers, in %.

Q: Give a short answer stating reported Amoxicillin released in solution Mean for CC1(C)S[C@@H]2[C@H](NC(=O)[C@H](N)c3ccc(O)cc3)C(=O)N2[C@H]1C(=O)O.O.O.O [entry 4, amoxicillin trihydrate] .
A: 56.64

Q: Give a short answer stating reported Amoxicillin released in solution Mean for CC1(C)S[C@@H]2[C@H](NC(=O)[C@H](N)c3ccc(O)cc3)C(=O)N2[C@H]1C(=O)O.O.O.O [entry 1, amoxicillin trihydrate] .
A: 85.98

Q: Give a short answer stating reported Amoxicillin released in solution Mean for CC1(C)S[C@@H]2[C@H](NC(=O)[C@H](N)c3ccc(O)cc3)C(=O)N2[C@H]1C(=O)O.O.O.O [entry 5, amoxicillin trihydrate] .
A: 59.93

Q: Give a short answer stating reported Amoxicillin released in solution Mean for CC1(C)S[C@@H]2[C@H](NC(=O)[C@H](N)c3ccc(O)cc3)C(=O)N2[C@H]1C(=O)O.O.O.O [entry 2, amoxicillin trihydrate] .
A: 61.71

Q: Give a short answer stating reported Amoxicillin released in solution Mean for CC1(C)S[C@@H]2[C@H](NC(=O)[C@H](N)c3ccc(O)cc3)C(=O)N2[C@H]1C(=O)O.O.O.O [entry 6, amoxicillin trihydrate] .
A: 70.68

New cases:
Q: Give a short answer stating reported Amoxicillin released in solution Mean for CC1(C)S[C@@H]2[C@H](NC(=O)[C@H](N)c3ccc(O)cc3)C(=O)N2[C@H]1C(=O)O.O.O.O [entry 3, amoxicillin trihydrate] .
A: 59.73

---

Consider the following compounds; for each one, report its Amoxicillin released in solution Mean.
method: Powder dissolution, USP/NF paddle method with HPLC analysis
Type: physicochemical
conditions used: 60 min; 500 mg in 900 mL water, 37 °C, 75 rpm; mean of 3; trihydrate
Give bare numbers, in %.

Study these solved cases before continuing.
Q: Give a short answer stating reported Amoxicillin released in solution Mean for CC1(C)S[C@@H]2[C@H](NC(=O)[C@H](N)c3ccc(O)cc3)C(=O)N2[C@H]1C(=O)O.O.O.O [entry 6, amoxicillin trihydrate] .
A: 99.37

Q: Give a short answer stating reported Amoxicillin released in solution Mean for CC1(C)S[C@@H]2[C@H](NC(=O)[C@H](N)c3ccc(O)cc3)C(=O)N2[C@H]1C(=O)O.O.O.O [entry 2, amoxicillin trihydrate] .
A: 99.45

Q: Give a short answer stating reported Amoxicillin released in solution Mean for CC1(C)S[C@@H]2[C@H](NC(=O)[C@H](N)c3ccc(O)cc3)C(=O)N2[C@H]1C(=O)O.O.O.O [entry 5, amoxicillin trihydrate] .
A: 97.60

Q: Give a short answer stating reported Amoxicillin released in solution Mean for CC1(C)S[C@@H]2[C@H](NC(=O)[C@H](N)c3ccc(O)cc3)C(=O)N2[C@H]1C(=O)O.O.O.O [entry 4, amoxicillin trihydrate] .
A: 98.50

Q: Give a short answer stating reported Amoxicillin released in solution Mean for CC1(C)S[C@@H]2[C@H](NC(=O)[C@H](N)c3ccc(O)cc3)C(=O)N2[C@H]1C(=O)O.O.O.O [entry 1, amoxicillin trihydrate] .
A: 99.25

Consider now this further compound.
Q: Give a short answer stating reported Amoxicillin released in solution Mean for CC1(C)S[C@@H]2[C@H](NC(=O)[C@H](N)c3ccc(O)cc3)C(=O)N2[C@H]1C(=O)O.O.O.O [entry 3, amoxicillin trihydrate] .
A: 100.16

---

method: Powder dissolution, USP/NF paddle method with HPLC analysis
Format: physicochemical
conditions used: 90 min; 500 mg in 900 mL water, 37 °C, 75 rpm; replicate #1; trihydrate
Consider the following molecules; for each one, report its Amoxicillin released in solution #1.
Answers are plain numbers, in %.

Study these solved cases before continuing.
Q: Give a short answer stating reported Amoxicillin released in solution #1 for CC1(C)S[C@@H]2[C@H](NC(=O)[C@H](N)c3ccc(O)cc3)C(=O)N2[C@H]1C(=O)O.O.O.O [entry 3, amoxicillin trihydrate] .
A: 99.58

Q: Give a short answer stating reported Amoxicillin released in solution #1 for CC1(C)S[C@@H]2[C@H](NC(=O)[C@H](N)c3ccc(O)cc3)C(=O)N2[C@H]1C(=O)O.O.O.O [entry 6, amoxicillin trihydrate] .
A: 97.01

Q: Give a short answer stating reported Amoxicillin released in solution #1 for CC1(C)S[C@@H]2[C@H](NC(=O)[C@H](N)c3ccc(O)cc3)C(=O)N2[C@H]1C(=O)O.O.O.O [entry 2, amoxicillin trihydrate] .
A: 99.24

Q: Give a short answer stating reported Amoxicillin released in solution #1 for CC1(C)S[C@@H]2[C@H](NC(=O)[C@H](N)c3ccc(O)cc3)C(=O)N2[C@H]1C(=O)O.O.O.O [entry 5, amoxicillin trihydrate] .
A: 99.33

Q: Give a short answer stating reported Amoxicillin released in solution #1 for CC1(C)S[C@@H]2[C@H](NC(=O)[C@H](N)c3ccc(O)cc3)C(=O)N2[C@H]1C(=O)O.O.O.O [entry 4, amoxicillin trihydrate] .
A: 97.76

New cases:
Q: Give a short answer stating reported Amoxicillin released in solution #1 for CC1(C)S[C@@H]2[C@H](NC(=O)[C@H](N)c3ccc(O)cc3)C(=O)N2[C@H]1C(=O)O.O.O.O [entry 1, amoxicillin trihydrate] .
A: 99.93

---

Consider the following compounds; for each one, report its Amoxicillin released in solution #1.
method: Powder dissolution, USP/NF paddle method with HPLC analysis
Type: physicochemical
conditions used: 30 min; 500 mg in 900 mL water, 37 °C, 75 rpm; replicate #1; trihydrate
One number for each entry, in %.

Study these solved cases before continuing.
Q: Give a short answer stating reported Amoxicillin released in solution #1 for CC1(C)S[C@@H]2[C@H](NC(=O)[C@H](N)c3ccc(O)cc3)C(=O)N2[C@H]1C(=O)O.O.O.O [entry 6, amoxicillin trihydrate] .
A: 96.08

Q: Give a short answer stating reported Amoxicillin released in solution #1 for CC1(C)S[C@@H]2[C@H](NC(=O)[C@H](N)c3ccc(O)cc3)C(=O)N2[C@H]1C(=O)O.O.O.O [entry 3, amoxicillin trihydrate] .
A: 99.21

Consider now this further compound.
Q: Give a short answer stating reported Amoxicillin released in solution #1 for CC1(C)S[C@@H]2[C@H](NC(=O)[C@H](N)c3ccc(O)cc3)C(=O)N2[C@H]1C(=O)O.O.O.O [entry 5, amoxicillin trihydrate] .
A: 94.78
